Target: 5HT2 (Homo sapiens, UniProt P28223)
Sequence (P28223 whole entry, species assumed): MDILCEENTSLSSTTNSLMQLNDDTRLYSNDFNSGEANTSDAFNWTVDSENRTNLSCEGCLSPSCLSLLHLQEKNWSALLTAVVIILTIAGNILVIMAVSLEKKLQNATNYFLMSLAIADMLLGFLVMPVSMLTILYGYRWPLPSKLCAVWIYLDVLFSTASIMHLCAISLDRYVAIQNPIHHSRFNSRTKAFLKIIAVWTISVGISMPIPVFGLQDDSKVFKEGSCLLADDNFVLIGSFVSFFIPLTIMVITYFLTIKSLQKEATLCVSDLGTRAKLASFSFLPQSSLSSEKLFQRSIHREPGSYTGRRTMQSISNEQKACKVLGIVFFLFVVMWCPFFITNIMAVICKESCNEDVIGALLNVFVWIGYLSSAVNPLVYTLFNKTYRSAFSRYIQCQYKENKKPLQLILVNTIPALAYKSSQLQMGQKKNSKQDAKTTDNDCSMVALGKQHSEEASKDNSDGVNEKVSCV
Test: Serotonin (5HT) receptor binding action (RBA; in vitro), 5HT2
Settings: method of JP98/01481 or JP-A 10-281752
Where a name gives a salt, the structure may show the parent alone.
Hi! Could you tag entries with Ki below 3 nM as Y, and those at or above as N? Much appreciated.

1) NC(=O)Cc1ccc2ccn(C3CCN(CCc4ccccc4F)CC3)c2c1 [(13)]
Y
2) CNC(=O)Cc1ccc2ccn(C3CCN(CCc4ccccc4F)CC3)c2c1 [(10)]
Y
3) CC(=O)NCc1ccc2c(c1)N(C1CCN(CCc3ccc(F)cc3)CC1)CC2 [(14)]
Y
4) CCC(O)c1ccc(-c2cc3ccccc3c(N3CCN(CC)CC3)n2)cc1 (stereo not shown) [(17)]
Y
5) CCN1CCN(c2nc(-c3ccc(CCC(C)(C)O)c(F)c3)cc3ccccc23)CC1.Cl [(19), hydrochloride]
Y
6) CCN1CCN(c2nc(-c3ccc(OCCO)cc3)cc3ccccc23)CC1 [(16)]
N
7) CCN1CCN(c2nc(-c3ccc(C(C)O)cc3)cc3sccc23)CC1.O=C(O)C(=O)O (stereo not shown) [(26), oxalate]
N
8) CC(=O)NCc1ccc2ccn(C3CCN(CCc4ccc(F)cc4)CC3)c2c1 [(1)]
Y
9) CC(=O)NCc1ccc2ccn(C3CCN(CCc4ccccc4F)CC3)c2c1 [(4)]
Y
10) CCN1CCN(c2nc(-c3cccc(CCCO)c3)cc3ccccc23)CC1 [(22), hydrochloride]
N
11) CCN1CCN(c2nc(-c3ccc(OCC(C)O)cc3)cc3sccc23)CC1.Cl (stereo not shown) [(24), hydrochloride]
Y
12) CC(C)(O)COc1ccc(-c2cc3sccc3c(N3CCN(CCO)CC3)n2)cc1.Cl [(27), hydrochloride]
Y
13) CCN1CCN(c2nc(-c3ccc(OCCO)c(C#N)c3)cc3ccccc23)CC1.Cl [(21), hydrochloride]
N
